- measurementProtocol: Half life in rhesus monkey at 0.75 mg/kg, iv
- Assay type: ADME, organism-based, Macaca mulatta
- Design: dose 0.75 mg/kg, route intravenous
- testParameters: in vivo
readoutLabel: half-life
Be sure to follow the number with its unit.

Form: compound = `O=C(Nc1ccc(C[C@H](NC(=O)[C@@H]2C[C@@H](N3CCC3)CN2S(=O)(=O)c2cc(Cl)cc(Cl)c2)C(=O)O)cc1)c1c(Cl)cncc1Cl` ; half-life = 1.1 h

====

- measurementProtocol: Half life in rhesus monkey at 5 mg/kg, po
- Format: ADME, organism-based, Macaca mulatta
- Set-up: dose 5 mg/kg, route oral
- testParameters: in vivo
readoutLabel: half-life (h)
Respond with the bare value in h.

According to the records, this compound `N#Cc1cccc(S(=O)(=O)N2C[C@H](NC3CCC3)C[C@H]2C(=O)N[C@@H](Cc2ccc(NC(=O)c3c(Cl)cncc3Cl)cc2)C(=O)O)c1` displays half-life of 1.1

// data source = ChEMBL document CHEMBL1136936
